target: 3CL protease of 2019 Novel Coronavirus (2019-nCoV 3CLpro) (Severe acute respiratory syndrome coronavirus 2, UniProt P0DTD1); construct: the 3CL protease of 2019 Novel Coronavirus (2019-nCoV 3CL^pro); assay: FRET inhibitory activity against 3CL protease of 2019 Novel Coronavirus; assay type: biochemical; conditions: read-out: IC50 against 2019-nCoV 3CL protease
pIC50: −log10 of the molar value.
property label: pIC50

O=C[C@H](C[C@@H]1CCNC1=O)NC(=O)[C@H](Cc1ccc(F)c(F)c1)NC(=O)c1cc2ccccc2[nH]1 | > 7.00

Consider now this further molecule.
What value of measured pIC50 is listed for "O=C[C@H](C[C@@H]1CCNC1=O)NC(=O)[C@H](Cc1cccc(F)c1)NC(=O)c1cc2ccccc2[nH]1" ?
> 7.00

----------
biological target: 3CL protease of 2019 Novel Coronavirus (2019-nCoV 3CLpro) (Severe acute respiratory syndrome coronavirus 2); construct: the 3CL protease of 2019 Novel Coronavirus (2019-nCoV 3CL^pro); assay: FRET inhibitory activity against 3CL protease of 2019 Novel Coronavirus; assay type: biochemical; conditions: read-out: Inhibition rate (1 μM), 3CL protease of 2019 Novel Coronavirus
Respond with Satisfied for inhibition at 1 µM values of 90% and above, Not satisfied for values below.

Answered cases to consult:
CC(C)[C@H](NC(=O)c1cc2ccccc2[nH]1)C(=O)N[C@@H](CC1CCC(F)C(F)C1)C(=O)N[C@H](C=O)C[C@@H]1CCNC1=O (stereo partly shown) | Satisfied
O=C[C@H](C[C@@H]1CCNC1=O)NC(=O)[C@H](CC1CCCCC1)NC(=O)c1cc2c(F)cccc2[nH]1 | Not satisfied

Pending molecule:
Dear colleague, could you confirm whether "O=C[C@H](C[C@@H]1CCNC1=O)NC(=O)[C@H](CC1CCCCC1)NC(=O)c1cc2ccccc2s1" has inhibition at 1 µM at or above 90%?
Not satisfied

----------
molecular target: 3CL protease of 2019 Novel Coronavirus (2019-nCoV 3CLpro) (Severe acute respiratory syndrome coronavirus 2); construct: the 3CL protease of 2019 Novel Coronavirus (2019-nCoV 3CL^pro); test: FRET inhibitory activity against 3CL protease of 2019 Novel Coronavirus; format: biochemical; conditions: read-out: Inhibition rate (1 μM), 3CL protease of 2019 Novel Coronavirus
Please respond with reported inhibition at 1 µM for every item in the list.
Answers are plain numbers, in %.

O=C[C@H](C[C@@H]1CCNC1=O)NC(=O)[C@H](CC1CCCCC1)NC(=O)c1cnc2ccccc2n1 [Compound 59] | 86.7
Cn1c(C(=O)N[C@@H](CC2CCCCC2)C(=O)N[C@H](C=O)C[C@@H]2CCNC2=O)cc2ccccc21 [Compound 49] | 91.2

// below: inhibition at 1 µM requested for another molecule
Look up inhibition at 1 µM: O=C[C@H](C[C@@H]1CCNC1=O)NC(=O)[C@H](Cc1ccccc1)NC(=O)c1cc2cc(F)ccc2[nH]1 [Compound 45]
85.2

----------
molecular target: 3CL protease of 2019 Novel Coronavirus (2019-nCoV 3CLpro) (Severe acute respiratory syndrome coronavirus 2); construct: the 3CL protease of 2019 Novel Coronavirus (2019-nCoV 3CL^pro); assay: FRET inhibitory activity against 3CL protease of 2019 Novel Coronavirus; assay type: biochemical; settings: read-out: Inhibition rate (1 μM), 3CL protease of 2019 Novel Coronavirus
Consider the following molecules; for each one, report its inhibition at 1 µM.
Just so you know, I need the unit written after the number.

A selection of reference data follows.
O=C[C@H](C[C@@H]1CCNC1=O)NC(=O)[C@H](Cc1ccccc1)NC(=O)c1cc2ccc(F)cc2[nH]1 | 89.3%
COc1ccc2[nH]c(C(=O)N[C@@H](CC3CCCCC3)C(=O)N[C@H](C=O)C[C@@H]3CCNC3=O)cc2c1 | 89.1%
O=C[C@H](C[C@@H]1CCNC1=O)NC(=O)[C@H](CC1CCCCC1)NC(=O)c1cc2c(Cl)cc(Cl)cc2[nH]1 | 90.4%

Now let's try a different one.
Reported inhibition at 1 µM for "O=C[C@H](C[C@@H]1CCNC1=O)NC(=O)[C@H](CC1CCCCC1)NC(=O)c1nc2ccccc2[nH]1" : what is it?
92.3%
